# glycan array binding signal (z-score) annotations
Biological target: Fuc(a1-2)[GalNAc(a1-3)]Gal(b1-4)GlcNAc
Test: glycan array binding signal (z-score within array); higher = stronger binding
Conditions: glycan notation: IUPAC condensed, linker removed
Only a selection was taken, and the strongest signals are over-represented in it overall.
When you answer, write just the number.

binder="LEA (Lycopersicon esculentum) (protein) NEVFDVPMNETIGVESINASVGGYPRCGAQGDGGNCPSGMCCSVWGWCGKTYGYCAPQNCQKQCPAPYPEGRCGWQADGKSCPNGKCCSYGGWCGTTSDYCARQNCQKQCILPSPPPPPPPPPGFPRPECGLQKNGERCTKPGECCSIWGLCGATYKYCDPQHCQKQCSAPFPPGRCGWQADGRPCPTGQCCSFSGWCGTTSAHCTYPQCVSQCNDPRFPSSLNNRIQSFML" propertyname="glycan array binding signal (z-score)" recordedvalue=2.5

### Prompt Could you tell me which glycan array binding signal (z-score) is on file for CC1G-11630 (Coprinopsis cinerea), A8P462 (protein) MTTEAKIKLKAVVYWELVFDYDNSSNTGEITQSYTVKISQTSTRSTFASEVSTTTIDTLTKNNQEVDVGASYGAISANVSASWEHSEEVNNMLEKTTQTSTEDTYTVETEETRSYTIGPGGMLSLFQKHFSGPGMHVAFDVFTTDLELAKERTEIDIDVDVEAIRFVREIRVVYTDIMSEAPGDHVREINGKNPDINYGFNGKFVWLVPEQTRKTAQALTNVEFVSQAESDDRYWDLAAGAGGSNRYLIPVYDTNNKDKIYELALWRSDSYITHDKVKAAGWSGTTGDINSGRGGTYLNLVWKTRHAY ?
### Response -0.601
